- Tested on: COR-L 105
- TEST PROTOCOL: relative viability (nuclei count vs DMSO), 5 days (fraction); higher = more cells survive
- EXPERIMENTAL PARAMETERS: first compound 0.8 µM
What relative viability was measured for each of the following?

relative viability recorded for this compound, Cc1cnc(-c2cnc(NCCNc3ccc(C#N)cn3)nc2-c2ccc(Cl)cc2Cl)[nH]1 + C[C@@H](Oc1cc(-c2cnn(C3CCNCC3)c2)cnc1N)c1c(Cl)ccc(F)c1Cl [Crizotinib] (partner 1 µM) , is 0.706

# relative viability (compound: Cc1cnc(-c2cnc(NCCNc3ccc(C#N)cn3)nc2-c2ccc(Cl)cc2Cl)[nH]1 + O=C(CCCCCCC(=O)Nc1ccccc1)NO [Vorinostat] (partner 1 µM) ) is 0.596

Record summary for Cc1cnc(-c2cnc(NCCNc3ccc(C#N)cn3)nc2-c2ccc(Cl)cc2Cl)[nH]1 + CCNC(=O)c1noc(-c2cc(C(C)C)c(O)cc2O)c1-c1ccc(CN2CCOCC2)cc1 [Luminespib] (partner 0.01 µM) : reported relative viability = 0.696

In plain terms, O=c1[nH]c2ccccc2n1C1CCN(CCCC(c2ccc(F)cc2)c2ccc(F)cc2)CC1 [Pimozide] + C[C@@H](Oc1cc(-c2cnn(C3CCNCC3)c2)cnc1N)c1c(Cl)ccc(F)c1Cl [Crizotinib] (partner 1 µM) has a documented relative viability of 0.691

====

- System: HARA
- TEST PROTOCOL: relative viability (nuclei count vs DMSO), 5 days (fraction); higher = more cells survive
- EXPERIMENTAL PARAMETERS: first compound 0.08 µM
Criterion: relative viability strictly less than 0.8. Met: 1 (yes). Not met: 0 (no).

Is the reported relative viability for O=c1[nH]c2ccccc2n1C1CCN(CCCC(c2ccc(F)cc2)c2ccc(F)cc2)CC1 [Pimozide] + Cc1nc(NC(=O)N2CCC[C@H]2C(N)=O)sc1-c1ccnc(C(C)(C)C(F)(F)F)c1 [Alpelisib] (partner 2 µM) strictly below 0.8?
1 (yes)

Hi there! Is relative viability for Cc1cnc(-c2cnc(NCCNc3ccc(C#N)cn3)nc2-c2ccc(Cl)cc2Cl)[nH]1 + CC1(C)CCC(c2ccc(Cl)cc2)=C(CN2CCN(c3ccc(C(=O)NS(=O)(=O)c4ccc(N[C@H](CCN5CCOCC5)CSc5ccccc5)c(S(=O)(=O)C(F)(F)F)c4)cc3)CC2)C1 [Navitoclax] (partner 0.5 µM) below 0.8, do you know?
0 (no)

A record lists Cc1cnc(-c2cnc(NCCNc3ccc(C#N)cn3)nc2-c2ccc(Cl)cc2Cl)[nH]1 + C[C@@H](Oc1cc(-c2cnn(C3CCNCC3)c2)cnc1N)c1c(Cl)ccc(F)c1Cl [Crizotinib] (partner 1 µM) . Is its relative viability below 0.8?
0 (no)

Threshold test, relative viability < 0.8: Cc1cnc(-c2cnc(NCCNc3ccc(C#N)cn3)nc2-c2ccc(Cl)cc2Cl)[nH]1 + CCNC(=O)c1noc(-c2cc(C(C)C)c(O)cc2O)c1-c1ccc(CN2CCOCC2)cc1 [Luminespib] (partner 0.01 µM)
0 (no)

====

So I've got a bunch of compounds here, and I need their relative viability values.
- Test system: NCI-H1395
- TEST PROTOCOL: relative viability (nuclei count vs DMSO), 5 days (fraction); higher = more cells survive
- EXPERIMENTAL PARAMETERS: first compound 8 µM
// keep it numeric: no unit symbol after the value

Measured relative viability, O=c1[nH]c2ccccc2n1C1CCN(CCCC(c2ccc(F)cc2)c2ccc(F)cc2)CC1 [Pimozide] + O=C(CCCCCCC(=O)Nc1ccccc1)NO [Vorinostat] (partner 1 µM) : 0.628

// O=c1[nH]c2ccccc2n1C1CCN(CCCC(c2ccc(F)cc2)c2ccc(F)cc2)CC1 [Pimozide] + CS(=O)(=O)N1CCN(Cc2cc3nc(-c4cccc5[nH]ncc45)nc(N4CCOCC4)c3s2)CC1 [Pictilisib] (partner 1 µM) : relative viability value = 0.681

response.value for O=c1[nH]c2ccccc2n1C1CCN(CCCC(c2ccc(F)cc2)c2ccc(F)cc2)CC1 [Pimozide] + Nc1nc2[nH]cc(CCc3ccc(C(=O)N[C@@H](CCC(=O)O)C(=O)O)cc3)c2c(=O)[nH]1 [Pemetrexed] (partner 0.2 µM) (field: relative viability) = 0.831

Given item O=c1[nH]c2ccccc2n1C1CCN(CCCC(c2ccc(F)cc2)c2ccc(F)cc2)CC1 [Pimozide] + NC(=O)Nc1cc(-c2cccc(F)c2)sc1C(=O)N[C@H]1CCCNC1 [AZD7762] (partner 0.2 µM) , the value recorded as its relative viability is 0.394
